percentage of EdU-negative values for the sequences below.
Tested on: MCF7;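 note: secreted proteins added to cultured cells, EdU pulse at the end, nuclei found by Hoechst imaging, EdU status from nuclear versus surrounding ring intensity ratio, PBS as neutral control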
experimental-protocol: percentage of EdU-negative (G0-arrested) nuclei per well, 72 h; higher = more G0 arrest
condition-summary: protein concentration 0.0225 µM; reference: sequence is the full UniProt precursor, the tested protein was the secreted form or ectodomain
Enter your answer as a number in %; do not include the unit.

Let me know recorded percentage of EdU-negative for MRLPGVPLARPALLLLLPLLAPLLGTGAPAELRVRVRLPDGQVTEESLQADSDADSISLELRKPDGTLVSFTADFKKDVKVFRALILGELEKGQSQFQALCFVTQLQHNEIIPSEAMAKLRQKNPRAVRQAEEVRGLEHLHMDVAVNFSQGALLSPHLHNVCAEAVDAIYTRQEDVRFWLEQGVDSSVFEALPKASEQAELPRCRQVGDHGKPCVCRYGLSLAWYPCMLKYCHSRDRPTPYKCGIRSCQKSYSFDFYVPQRQLCLWDEDPYPG [Q86UD1] , thanks.
26.9

Consider the sequence MSGGRAPAVLLGGVASLLLSFVWMPALLPVASRLLLLPRVLLTMASGSPPTQPSPASDSGSGYVPGSVSAAFVTCPNEKVAKEIARAVVEKRLAACVNLIPQITSIYEWKGKIEEDSEVLMMIKTQSSLVPALTDFVRSVHPYEVAEVIALPVEQGNFPYLQWVRQVTESVSDSITVLP . State its measured percentage of EdU-negative.
25.3

Answer with the recorded percentage of EdU-negative of MRLLVLLWGCLLLPGYEALEGPEEISGFEGDTVSLQCTYREELRDHRKYWCRKGGILFSRCSGTIYAEEEGQETMKGRVSIRDSRQELSLIVTLWNLTLQDAGEYWCGVEKRGPDESLLISLFVFPGPCCPPSPSPTFQPLATTRLQPKAKAQQTQPPGLTSPGLYPAATTAKQGKTGAEAPPLPGTSQYGHERTSQYTGTSPHPATSPPAGSSRPPMQLDSTSAEDTSPALSSGSSKPRVSIPMVRILAPVLVLLSLLSAAGLIAFCSHLLLWRKEAQQATETQRNEKFCLSRLTAEEKEAPSQAPEGDVISMPPLHTSEEELGFSKFVSA [K7EL06] only.
26

Identify percentage of EdU-negative associated with the sequence MTPSRLPWLLSWVSATAWRAARSPLLCHSLRKTSSSQGGKSELVKQSLKKPKLPEGRFDAPEDSHLEKEPLEKFPDDVNPVTKEKGGPRGPEPTRYGDWERKGRCIDF [Q5VUM1]
28
